Molecular target: T1, human TREM2-Fc (human, UniProt Q9NZC2 19-174)
T1 construct: also called hTREM2; not shown: Fc part (captured by anti-human IgG1 Fc or protein A)
T1 sequence: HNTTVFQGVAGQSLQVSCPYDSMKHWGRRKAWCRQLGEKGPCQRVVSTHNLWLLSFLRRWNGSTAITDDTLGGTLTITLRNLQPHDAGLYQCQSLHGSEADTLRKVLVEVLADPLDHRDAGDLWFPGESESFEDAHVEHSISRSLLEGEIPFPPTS
Experiment: SPR (Biacore T200), 37 C; TREM2-Fc on protein A chip, soluble Fab
Protocol: Affinity of h3.10C2.v1 (FIGS. 9A-B) for human and cynomolgus TREM2 was determined by SPR in a Biacore™ T200 apparatus in two formats, both at 37° C. In one format TREM2-Fc was immobilized on protein A chips and soluble anti-TREM2 Fab fragments used as ligands. In the second format, anti-TREM2 IgG was immobilized on anti-CH1 Biacore™ chips and used soluble monomeric TREM2 as ligand.
Property Name: Kd (nM)

* 3.10C2 Fab (Fab, V domains shown, also called 3.10C2 (3.10C2); Rat3.10C2) VH: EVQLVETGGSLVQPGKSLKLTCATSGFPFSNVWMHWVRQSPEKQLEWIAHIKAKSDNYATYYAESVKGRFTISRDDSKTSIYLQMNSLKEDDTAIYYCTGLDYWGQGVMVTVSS VL: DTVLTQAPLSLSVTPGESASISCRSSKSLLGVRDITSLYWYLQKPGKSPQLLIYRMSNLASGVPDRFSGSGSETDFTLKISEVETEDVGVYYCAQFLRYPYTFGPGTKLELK | 0.19

Sourced from patent US20220389097A1
